FYI, the data here is from paper PMC7367679.

- target_or_system: HLA-B*44:02 (Homo sapiens, UniProt P01889, A223V/A65T/A93T/A95T/D201E/D98Y/E176V/E187L/E204Q/E69K/G107R/H137Y/K202T/L105A/L119I/N104T/N87E/Q56L/Q94N/R106L/R155S/R180D/S101N/S121R/S35A/S48T/T118I/V36M/W191S/Y140D/Y91S)
- assay_protocol: HLA class I binding assay
Ends that are not written are not given here.
endpoint_label: IC50 (nM)
Numbers only, in nM.

Report IC50 for DENPWLGNI [HDV46–54] please.
438

====

- target_or_system: HLA-B*44:03 (Homo sapiens, UniProt P01889, A223V/A65T/A93T/A95T/D201E/D98Y/E176V/E187L/E204Q/E69K/G107R/H137Y/K202T/L105A/L119I/N104T/N87E/Q56L/Q94N/R106L/R155S/R180L/S101N/S121R/S35A/S48T/T118I/V36M/W191S/Y140D/Y91S)
- assay_protocol: HLA class I binding assay
Ends that are not written are not given here.
endpoint_label: pIC50
One number for each entry, as −log10 of the molar value.

Report pIC50 for DENPWLGNI [HDV46–54] please.
7.00
